The reported numbers originate from paper PMC9072010.

Tested on: A549 cancer cell lines
Assay: MTT antiproliferative assay, A549
Type: cell-based, human
Conditions: Homo sapiens, A549, Table 1, average of two separate determinations
A collection of molecules and their measured IC50

Recorded results for 6 molecules are shown here.
* c1ccc(-c2ccnn2-c2nc(N3CCOCC3)c3sccc3n2)cc1 [Compound 4a] | > 100 µM
* Cc1ccc(-c2ccnn2-c2nc(N3CCOCC3)c3sccc3n2)cc1 [Compound 4b] | > 100 µM
* Fc1ccc(-c2ccnn2-c2nc(N3CCOCC3)c3sccc3n2)cc1 [Compound 4c] | > 100 µM
* CS(=O)(=O)N1CCN(Cc2cc3nc(-c4cccc5[nH]ncc45)nc(N4CCOCC4)c3s2)CC1 [GDC-0941, reference compound] | 6.99 µM
* Clc1ccc(-c2ccnn2-c2nc(N3CCOCC3)c3sccc3n2)cc1 [Compound 4d] | > 100 µM
* Fc1ccc(-c2ccnn2-c2nc(N3CCOCC3)c3ccsc3n2)cc1 [Compound 7c] | > 100 µM

Task: Please report the recorded IC50 for Clc1ccc(-c2ccnn2-c2nc(N3CCOCC3)c3ccsc3n2)cc1 [Compound 7d] .
Output: > 100 µM

Task: Please report the recorded IC50 for Cc1ccc(-c2ccnn2-c2nc(N3CCOCC3)c3ccsc3n2)cc1 [Compound 7b] .
Output: 35 µM

Task: Please report the recorded IC50 for c1ccc(-c2ccnn2-c2nc(N3CCOCC3)c3ccsc3n2)cc1 [Compound 7a] .
Output: 37.6 µM

###

A collection of compounds and their measured melting point

- Clc1ccc(-c2ccnn2-c2nc(N3CCOCC3)c3sccc3n2)cc1: 250 to 251 °C
- Cc1ccc(-c2ccnn2-c2nc(N3CCOCC3)c3ccsc3n2)cc1: 286 to 289 °C

Task: Please report the recorded melting point for Clc1ccc(-c2ccnn2-c2nc(N3CCOCC3)c3ccsc3n2)cc1 .
Output: 280 to 282 °C

Task: Please report the recorded melting point for CN(C)CCN(C)c1nc(N2N=C(c3ccc(Br)cc3)CC2c2ccc(F)cc2)nc2sccc12 (centres unmarked) [Compound 13k] .
Output: 291 to 292 °C

Task: Please report the recorded melting point for CN(C)CCN(C)c1nc(N2N=C(c3ccc(Br)cc3)CC2c2ccccc2)nc2sccc12 (centres unmarked) [Compound 13l] .
Output: 261 to 262 °C

###

pIC50: −log10 of the molar value.
PI3Kα (Homo sapiens) pIC50 data
Sequence (P42336 whole entry): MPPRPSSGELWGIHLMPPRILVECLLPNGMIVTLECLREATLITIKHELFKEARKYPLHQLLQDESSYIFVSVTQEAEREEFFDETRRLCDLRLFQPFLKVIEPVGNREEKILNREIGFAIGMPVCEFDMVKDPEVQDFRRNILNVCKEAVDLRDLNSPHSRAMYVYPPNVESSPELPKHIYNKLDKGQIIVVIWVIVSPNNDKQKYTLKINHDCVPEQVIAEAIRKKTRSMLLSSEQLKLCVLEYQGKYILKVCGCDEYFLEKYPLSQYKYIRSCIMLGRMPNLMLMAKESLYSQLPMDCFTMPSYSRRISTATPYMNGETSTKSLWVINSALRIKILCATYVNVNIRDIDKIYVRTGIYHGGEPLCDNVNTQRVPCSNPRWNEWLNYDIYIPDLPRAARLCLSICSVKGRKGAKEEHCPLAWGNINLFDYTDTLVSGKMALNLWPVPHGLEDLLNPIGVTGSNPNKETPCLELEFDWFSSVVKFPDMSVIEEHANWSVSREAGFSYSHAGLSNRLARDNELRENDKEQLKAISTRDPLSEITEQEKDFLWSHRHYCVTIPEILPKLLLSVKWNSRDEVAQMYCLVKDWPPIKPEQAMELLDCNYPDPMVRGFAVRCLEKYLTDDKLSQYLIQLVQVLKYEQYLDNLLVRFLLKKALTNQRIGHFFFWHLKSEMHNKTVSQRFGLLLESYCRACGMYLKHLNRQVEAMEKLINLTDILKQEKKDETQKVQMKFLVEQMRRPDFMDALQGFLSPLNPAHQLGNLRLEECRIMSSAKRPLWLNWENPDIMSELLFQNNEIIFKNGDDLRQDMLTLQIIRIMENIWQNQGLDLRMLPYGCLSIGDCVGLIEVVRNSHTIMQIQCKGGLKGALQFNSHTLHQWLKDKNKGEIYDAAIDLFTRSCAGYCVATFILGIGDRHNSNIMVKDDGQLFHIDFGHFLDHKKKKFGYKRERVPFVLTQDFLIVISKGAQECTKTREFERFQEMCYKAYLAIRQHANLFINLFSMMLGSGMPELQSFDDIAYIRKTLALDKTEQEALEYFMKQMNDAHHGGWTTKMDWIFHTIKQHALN
Sequence (P27986 whole entry partner): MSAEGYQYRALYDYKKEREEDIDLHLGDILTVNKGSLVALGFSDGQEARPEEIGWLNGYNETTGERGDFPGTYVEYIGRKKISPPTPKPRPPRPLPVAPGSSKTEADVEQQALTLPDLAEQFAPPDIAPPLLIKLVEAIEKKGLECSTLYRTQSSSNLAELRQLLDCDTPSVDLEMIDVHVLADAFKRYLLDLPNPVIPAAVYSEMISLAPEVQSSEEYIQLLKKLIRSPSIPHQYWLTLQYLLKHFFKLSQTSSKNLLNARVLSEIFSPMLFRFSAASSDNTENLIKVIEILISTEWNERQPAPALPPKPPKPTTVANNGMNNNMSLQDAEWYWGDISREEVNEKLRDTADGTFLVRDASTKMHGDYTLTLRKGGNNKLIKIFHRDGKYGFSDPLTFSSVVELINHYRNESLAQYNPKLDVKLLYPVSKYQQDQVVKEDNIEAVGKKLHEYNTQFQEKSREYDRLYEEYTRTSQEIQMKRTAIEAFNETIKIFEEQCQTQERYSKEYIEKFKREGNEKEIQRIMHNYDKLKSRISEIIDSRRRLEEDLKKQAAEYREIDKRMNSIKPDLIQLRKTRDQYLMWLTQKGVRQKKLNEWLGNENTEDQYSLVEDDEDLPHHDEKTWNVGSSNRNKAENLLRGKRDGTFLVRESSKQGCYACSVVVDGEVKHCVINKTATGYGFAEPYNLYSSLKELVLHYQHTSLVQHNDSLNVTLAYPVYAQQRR
test-readout: pIC50

Recorded results for 2 molecules are shown here.
* Cc1ccc(C2CC(c3ccc(Br)cc3)=NN2c2nc(N(C)CCN(C)C)c3ccsc3n2)cc1 (stereo not shown) [Compound 13h] | 5.15
* Cc1ccc(C2CC(c3ccc(Cl)c(Cl)c3)=NN2c2nc(N(C)CCN(C)C)c3ccsc3n2)cc1 (stereo not shown) [Compound 13g] | 5.48

1: COc1ccc(C2CC(c3ccccc3)=NN2c2nc(N(C)CCN(C)C)c3ccsc3n2)cc1 (stereo not shown) [Compound 13f]
2: CN(C)CCN(C)c1nc(N2N=C(c3ccc(F)cc3)CC2c2ccc(F)cc2)nc2sccc12 (stereo not shown) [Compound 13c]
Task: Return label of the item with the larger pIC50. Candidates: 1 , 2 . Reply with the label of the item you choose.
Output: 1
(1: 6.04, 2: 5.34)

###

Test system: A549 cancer cell lines
Experiment: MTT antiproliferative assay, A549
Format: cell-based, human
Conditions: Homo sapiens, A549, Table 2, average of two separate determinations
test-readout: IC50 (µM)

• CN(C)CCN(C)c1nc(N2N=C(c3ccc(Br)cc3)CC2c2ccccc2)nc2sccc12 (stereo not drawn) [Compound 13l] = 22.9

a: CN(C)CCN(C)c1nc(N2N=C(c3ccc(F)cc3)CC2c2ccc(F)cc2)nc2sccc12 (stereo not drawn) [Compound 13c]
b: Cc1ccc(C2CC(c3ccc(Br)cc3)=NN2c2nc(N(C)CCN(C)C)c3ccsc3n2)cc1 (stereo not drawn) [Compound 13h]
c: CN(C)CCN(C)c1nc(N2N=C(c3ccc(Br)cc3)CC2c2ccc(F)cc2)nc2sccc12 (stereo not drawn) [Compound 13k]
Task: // smallest IC50 at index 0, largest at the end I would appreciate it if you listed the labels in the requested order.
Output: b, a, c
(b: 5.43 µM, a: 9.23 µM, c: 22.7 µM)

a: COc1ccc(C2CC(c3ccccc3)=NN2c2nc(N(C)CCN(C)C)c3ccsc3n2)cc1 (stereo not drawn) [Compound 13f]
b: CN(C)CCN(C)c1nc(N2N=C(c3ccccc3)CC2c2ccccc2)nc2sccc12 (stereo not drawn) [Compound 13i]
c: CN(C)CCN(C)c1nc(N2N=C(c3ccc(Cl)c(Cl)c3)CC2c2ccc(Br)cc2)nc2sccc12 (stereo not drawn) [Compound 13b]
Task: // smallest IC50 at index 0, largest at the end I would appreciate it if you listed the labels in the requested order.
Output: a, b, c

###

Test system: MCF-7 cancer cell lines
Assay: MTT antiproliferative assay, MCF-7
Type: cell-based, human
Settings: Homo sapiens, MCF7, Table 1, average of two separate determinations
pIC50: −log10 of the molar value.
test-readout: pIC50

Task: Please report the recorded pIC50 for Clc1ccc(-c2ccnn2-c2nc(N3CCOCC3)c3ccsc3n2)cc1 .
Output: < 4.00

Task: Please report the recorded pIC50 for Fc1ccc(-c2ccnn2-c2nc(N3CCOCC3)c3sccc3n2)cc1 .
Output: < 4.00

Task: Please report the recorded pIC50 for Cc1ccc(-c2ccnn2-c2nc(N3CCOCC3)c3ccsc3n2)cc1 .
Output: 4.51

Task: Please report the recorded pIC50 for CS(=O)(=O)N1CCN(Cc2cc3nc(-c4cccc5[nH]ncc45)nc(N4CCOCC4)c3s2)CC1 [GDC-0941, reference compound] .
Output: 7.15

Task: Please report the recorded pIC50 for c1ccc(-c2ccnn2-c2nc(N3CCOCC3)c3sccc3n2)cc1 .
Output: < 4.00

Task: Please report the recorded pIC50 for Fc1ccc(-c2ccnn2-c2nc(N3CCOCC3)c3ccsc3n2)cc1 .
Output: < 4.00

Task: Please report the recorded pIC50 for Cc1ccc(-c2ccnn2-c2nc(N3CCOCC3)c3sccc3n2)cc1 .
Output: < 4.00

Task: Please report the recorded pIC50 for Clc1ccc(-c2ccnn2-c2nc(N3CCOCC3)c3sccc3n2)cc1 .
Output: < 4.00

Task: Please report the recorded pIC50 for c1ccc(-c2ccnn2-c2nc(N3CCOCC3)c3ccsc3n2)cc1 .
Output: 4.60

###

A collection of compounds and their measured melting point

Recorded results for 3 compounds are shown here.
- c1ccc(-c2ccnn2-c2nc(N3CCOCC3)c3ccsc3n2)cc1: 223 to 225 °C
- c1ccc(-c2ccnn2-c2nc(N3CCOCC3)c3sccc3n2)cc1: 243.6 to 244.8 °C
- CN(C)CCN(C)c1nc(N2N=C(c3ccc(Cl)c(Cl)c3)CC2c2ccc(F)cc2)nc2sccc12 (centres unmarked) [Compound 13d]: 244 to 247 °C

Task: Please report the recorded melting point for Fc1ccc(-c2ccnn2-c2nc(N3CCOCC3)c3ccsc3n2)cc1 .
Output: 202 to 205 °C

Task: Please report the recorded melting point for CN(C)CCN(C)c1nc(N2N=C(c3ccc(F)cc3)CC2c2ccc(F)cc2)nc2sccc12 (centres unmarked) [Compound 13c] .
Output: 256 to 257 °C
